System: Rattus norvegicus
protocol_details: Antiamnesic effect against scopolamine-induced memory loss in passive avoidance step-down task paradigm in rat assessed as number of mistakes at 0.1 mg/kg, ip
Type: functional
settings: route intraperitoneal
Param label: returns true (1) when Activity < 20, returns false (0) otherwise, including exact equality.

molecule | experimental_system | group
CC1=C(CCN2CCN(C(c3ccc(F)cc3)c3ccc(F)cc3)CC2)C(=O)C2CCCCC2=N1 (stereo not drawn) | Rattus norvegicus | false (0)
COc1cc(Br)c(CN2CCN(C(c3ccc(F)cc3)c3ccc(F)cc3)CC2)cc1OC | Rattus norvegicus | false (0)
Cc1cc2c(cc1CN1CCN(C(c3ccc(F)cc3)c3ccc(F)cc3)CC1)OCO2 | Rattus norvegicus | false (0)
Fc1ccc(C(c2ccc(F)cc2)N2CCN(CCN3CCCCC3)CC2)cc1 | Rattus norvegicus | true (1)
Cc1nc2ccccn2c(=O)c1CCN1CCN(C(c2ccc(F)cc2)c2ccc(F)cc2)CC1 | Rattus norvegicus | false (0)
Fc1ccc(C(c2ccc(F)cc2)N2CCN(CCN3CCCC3)CC2)cc1 | Rattus norvegicus | true (1)
Fc1ccc(C(c2ccc(F)cc2)N2CCN(CCN3CCOCC3)CC2)cc1 | Rattus norvegicus | true (1)
N#Cc1ccccc1-c1ccc(CN2CCN(C(c3ccc(F)cc3)c3ccc(F)cc3)CC2)cc1 | Rattus norvegicus | true (1)

###

IC50 listing for selected molecules.
experimental_system: Acetylcholinesterase (Rattus norvegicus, UniProt P37136)
Sequence (P37136 whole entry): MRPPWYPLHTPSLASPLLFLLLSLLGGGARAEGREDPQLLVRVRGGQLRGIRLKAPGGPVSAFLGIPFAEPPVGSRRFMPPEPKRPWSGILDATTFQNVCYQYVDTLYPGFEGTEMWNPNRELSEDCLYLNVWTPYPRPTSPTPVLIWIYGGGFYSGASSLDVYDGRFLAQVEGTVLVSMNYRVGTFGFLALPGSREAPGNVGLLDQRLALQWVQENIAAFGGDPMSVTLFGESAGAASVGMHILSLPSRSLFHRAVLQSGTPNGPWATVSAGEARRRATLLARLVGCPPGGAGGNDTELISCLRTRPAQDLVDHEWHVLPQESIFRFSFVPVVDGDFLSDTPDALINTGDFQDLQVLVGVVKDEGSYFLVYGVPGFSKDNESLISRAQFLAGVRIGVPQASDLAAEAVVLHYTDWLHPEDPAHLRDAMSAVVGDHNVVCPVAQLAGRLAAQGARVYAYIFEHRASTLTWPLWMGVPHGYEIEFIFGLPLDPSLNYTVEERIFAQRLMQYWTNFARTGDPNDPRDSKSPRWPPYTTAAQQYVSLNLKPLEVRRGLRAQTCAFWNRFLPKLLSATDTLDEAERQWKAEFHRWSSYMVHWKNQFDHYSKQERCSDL
protocol_details: Inhibition of rat brain homogenate AchE
settings: read-out: IC50

molecule | experimental_system | IC50 (nM)
Fc1ccc(C(c2ccc(F)cc2)N2CCN(CCN3CCOCC3)CC2)cc1 | Acetylcholinesterase (Rattus norvegicus, UniProt P37136) | 200
Fc1ccc(C(c2ccc(F)cc2)N2CCN(CCN3CCCCC3)CC2)cc1 | Acetylcholinesterase (Rattus norvegicus, UniProt P37136) | 93.7
CN(C)C(=O)Oc1cccc([N+](C)(C)C)c1 [NEOSTIGMINE METHYLSULFATE] | Acetylcholinesterase (Rattus norvegicus, UniProt P37136) | 37.5
N#Cc1ccccc1-c1ccc(CN2CCN(C(c3ccc(F)cc3)c3ccc(F)cc3)CC2)cc1 | Acetylcholinesterase (Rattus norvegicus, UniProt P37136) | 37.5
Fc1ccc(C(c2ccc(F)cc2)N2CCN(CCN3CCCC3)CC2)cc1 | Acetylcholinesterase (Rattus norvegicus, UniProt P37136) | 18.7
